Hey, just so you know, these numbers are from ChEMBL document CHEMBL4513216.

Would you kindly list cytotoxicity at 10 µM for each of these compounds?
- assay name: Toxicity liver stage against HepG2, at 10uM
- Type: cell-based
- Design: test concentration 10 uM, cell line HepG2-A16-CD81EGFP
- measurement conditions: human, HepG2-A16-CD81EGFP cells; read-out: INHIBITION
Give bare numbers, in %.

Supply reported cytotoxicity at 10 µM belonging to this compound: CC(NC(=O)N1CCS(=O)(=O)CC1)c1c(F)cccc1Cl (configuration not stated)
3.54

Supply reported cytotoxicity at 10 µM belonging to this compound: CC(=O)c1cc(C(=O)NC2(c3ccc(Br)cc3)CC2)n(C)c1
5.78

Supply reported cytotoxicity at 10 µM belonging to this compound: CC(C)NC(=O)[C@@H]1Cc2[nH]cnc2CN1CCCc1ccccc1
10.1

Supply reported cytotoxicity at 10 µM belonging to this compound: CC(C)Cn1ccnc1CNC(=O)NC(C)(C)c1nccs1
-5.66

For every item in the list below, what is its measured cytotoxicity at 10 µM?
1. COCC1CN(C(=O)c2cccn2C)Cc2cnn(C)c21 (configuration not stated)
2. COc1c(C2CCCN2C(=O)c2cccc(C(N)=O)c2)c(C)nn1C (configuration not stated)
3. Cc1cnn(CCNC(C)c2nnc(-c3ccccc3)o2)c1 (configuration not stated)
4. CN(CC(=O)NCC(C)(C)c1ccc2c(c1)OCO2)c1cnccn1
5. CC(C)CNC(=O)Nc1ccc(CN2CCOC2=O)cc1
6. CC(C)NC(=O)NC[C@H]1OC[C@@H](NCc2ccccc2F)[C@@H]1O

7.43
0.192
-2.4
-7.5
10.2
-1.31

* * *

Would you kindly list cytotoxicity at 10 µM for each of these molecules?
- assay name: Toxicity liver stage against HepG2, at 10uM
- Format: cell-based
- Set-up: test concentration 10 uM, cell line HepG2-A16-CD81EGFP
- measurement conditions: human, HepG2-A16-CD81EGFP cells; read-out: INHIBITION
Numbers only, in %.

Supply reported cytotoxicity at 10 µM belonging to this molecule: CN(C)S(=O)(=O)c1ccc(CNc2ccc(Cl)cn2)cc1
7.25

For every item in the list below, what is its measured cytotoxicity at 10 µM?
1. Clc1cccc(N2CCC(NCc3cc[nH]n3)C2)c1 (stereo not drawn)
2. Cc1noc(C(C)Nc2ccc3oc(C)nc3c2)n1 (stereo not drawn)
3. CCC(=O)N1CCC(c2nc(C)ncc2-c2ccncc2)CC1
4. CN(C)C(=O)C1OC2(CCNCC2)c2ccccc21 (stereo not drawn)
5. CCN(CC)c1ccc(NC(=O)NCC2(C(N)=O)CCOCC2)cn1
6. CCC1c2cccn2CCN1C(=O)c1cc(OC)nc(OC)n1 (stereo not drawn)

1: 4.01; 2: 1.81; 3: 6.04; 4: 0.37; 5: 7.15; 6: 15

For every item in the list below, what is its measured cytotoxicity at 10 µM?
1. CCC(C)(C)N(C)CCOc1cccc(S(C)(=O)=O)c1
2. O=C(CC1CCc2ccccc21)NC1(C(=O)O)CCOCC1 (stereo not drawn)
3. CCC(C)Oc1cc(C(=O)Nc2nccs2)ccn1 (stereo not drawn)
4. Cc1noc(C)c1CN1CC[C@H]2OCC[C@@H](C(=O)NCC3CC3)[C@H]2C1
5. Cc1cc(C2CN(CC(=O)NCc3ccco3)CCO2)ccc1F (stereo not drawn)
6. Cc1ccc2nc(-c3cnc(N)nc3)cc(C(=O)N(C)C)c2c1
7. Cc1nc(N2CCCC2)nc2c1CCN(C(=O)CN(C)C)CC2

1. -8.42
2. -2.13
3. -6.19
4. 1.27
5. 4.29
6. 14
7. -5.73

For every item in the list below, what is its measured cytotoxicity at 10 µM?
1. CN1CCC(c2nc3ccc(-c4cccc(F)c4)cn3n2)CC1
2. O=C(Nc1nc(-c2ccccc2)ns1)N1CCC(F)CC1
3. CS(=O)(=O)N1C[C@@H](Oc2ccccn2)[C@H]2OCCC[C@H]21
4. Cc1cc(C)cc(NCCC(=O)NC2CCCCC2)c1
5. Cc1nnsc1C(=O)NCCNS(=O)(=O)c1cccs1
6. CCCc1nnsc1C(=O)N1CCN(CC(C)O)CC1 (stereo not drawn)

10.4
-137
7.78
7.61
4.29
-5.3
